// provenance: paper PMC6155812

Tested on: T47D (human ductal carcinoma) cells
Test: WST-1 antiproliferative assay, T47D
Type: cell-based
Reported conditions: Homo sapiens, T47D, WST-1 assay, 3–4 days, 0.5–250 µM; neg = negative in concentration used; read-out: IC50 ± SD, T47D
pIC50: −log10 of the molar value.
# binarize pIC50: threshold 5 inclusive, high side Y, low side N

Has C#CC[Se]c1ccnc2c(S(=O)(=O)N(C)CC#C)cccc12 [6f] a recorded pIC50 greater than or equal to 5?
N

***
Does pIC50 meet or surpass 5 for C#CCN(C)S(=O)(=O)c1cccc2c(Cl)ccnc12 [2f] ?
N

Evaluate C#CCN(C)S(=O)(=O)c1ccc2nc(Cl)ccc2c1 [2b] : pIC50 at minimum 5?
Y

Would you say C#CC[Se]c1c(S(=O)(=O)N(C)CC#C)cnc2ccccc12 [6c] shows pIC50 at minimum 5?
N

Is it the case that C#CCN(C)S(=O)(=O)c1ccc2c(Cl)ccnc2c1 [2e] has pIC50 reaching or exceeding 5?
N

Has C#CCSc1c(S(=O)(=O)N(C)CC#C)cnc2ccccc12 [5c] a recorded pIC50 greater than or equal to 5?
N

Please indicate if the recorded pIC50 for C#CCSc1ccc2cc(S(=O)(=O)N(C)CC#C)ccc2n1 [5b] meets or exceeds 5.
N

Record C#CC[Se]c1nc2ccccc2cc1S(=O)(=O)N(C)CC#C [6a] ; criterion: pIC50 no lower than 5. Met?
N

Check if pIC50 >= 5 (inclusive). Item: C#CCN(C)S(=O)(=O)c1ccc2nccc(Cl)c2c1 [2d]
N

In plain terms: is recorded pIC50 at least 5 for C#CCSc1ccnc2c(S(=O)(=O)N(C)CC#C)cccc12 [5f] ?
Y

Record C#CC[Se]c1ccnc2cc(S(=O)(=O)N(C)CC#C)ccc12 [6e] ; criterion: pIC50 no lower than 5. Met?
N

Say whether C#CCSc1ccc2ncc(SCC#C)cc2c1 [compound 11, 3,6-Di(3-propynylthio)quinoline] shows pIC50 of 5 or more.
N

Decide: pIC50 of C#CCN(C)S(=O)(=O)c1ccc2ncc(S(=O)(=O)N(C)CC#C)cc2c1 [compound 12] >= 5?
Y

Check the entry C#CCN(C)S(=O)(=O)c1cnc2ccccc2c1Cl [2c] : does pIC50 equal or exceed 5?
Y

---

The following molecules are listed with their measured pIC50 values.
System: HFF-1 normal fibroblasts
Test: WST-1 cytotoxicity assay, normal fibroblasts HFF-1
Assay type: cell-based, human
Reported conditions: Homo sapiens, HFF-1, WST-1 assay, 3–4 days, 0.5–250 µM, neg = negative in concentration used, read-out: IC50 ± SD, HFF-1
Bear in mind: pIC50 is minus log10 of a mol/L concentration; give just that figure.

Solved entries (count: 5):
Entry under review: C#CC[Se]c1ccc2cc(S(=O)(=O)N(C)CC#C)ccc2n1 . Reported pIC50?
4.03

Look at this molecule and give its reported pIC50. C#CCSc1ccnc2c(S(=O)(=O)N(C)CC#C)cccc12
3.44

What pIC50 value was documented for this molecule, C#CC[Se]c1ccnc2c(S(=O)(=O)N(C)CC#C)cccc12 ?
3.50

Please give the measured pIC50 for this molecule: C#CCSc1ccnc2cc(S(=O)(=O)N(C)CC#C)ccc12
3.56

What pIC50 value was documented for this molecule, C#CCN(C)S(=O)(=O)c1cnc2ccccc2c1Cl ?
4.07

Others:
Tell me the measured pIC50 of C#CCN(C)S(=O)(=O)c1ccc2ncc(S(=O)(=O)N(C)CC#C)cc2c1 , please.
3.43

// query pIC50 value for entry C#CCN(C)S(=O)(=O)c1cccc2c(Cl)ccnc12
3.81

Look up pIC50: C#CCN(C)S(=O)(=O)c1ccc2nccc(Cl)c2c1
3.37

So what does the record say about pIC50 for C#CCN(C)S(=O)(=O)c1cnc2ccc(Cl)cc2c1 ?
4.14

Which pIC50 is reported for this molecule? C#CC[Se]c1ccnc2ccc(S(=O)(=O)N(C)CC#C)cc12
3.48

Item under review: C#CCSc1ccc2ncc(SCC#C)cc2c1 . Reported pIC50?
3.75
